test: PSAC antagonists in infected red cells, primary screen, cell-based, P. falciparum Indochina, OD700, 18 h (AID 1157); settings: P. falciparum Indochina infected erythrocytes, osmotic lysis OD700, 18 h; higher = more signal, called active from +8 up or from −8 down
ATTRIBUTE_MEASURED: z-score
Kindly provide the number alone.

Worked cases, answers included:
* O=C1OCC=C[C@H]2OC34C=CCN(Cn5nnc6ccccc65)C(=O)[C@H]3N(CCCCCCO)C(=O)[C@@H]4[C@@H]12 (stereo partly drawn) | 0.648
* O=C(N1CCCCC1)[C@@]1(Cc2ccccc2)COC(c2ccc(OCCCO)cc2)=N1 | 0.42
* COC1(C)CN(Cc2ccccc2Br)[C@H](/C=C/c2ccccc2)[C@H](Cc2ccccc2)O1 (stereo partly drawn) | -0.0143
* C=CCC(OC(C)=O)[C@@H]1[C@@H](N(Cc2ccc(-c3ccccc3)cc2)C(=O)c2cccc3ccccc23)c2cc(OCCCO)ccc2N1C(=O)Cc1ccc2ccccc2c1 (stereo partly drawn) | 0.283
* Cc1ccc(F)cc1S(=O)(=O)N[C@@H]1CCN(Cc2ccc(Oc3ccccc3)cc2)C1 | 1.19
* COCCOC(=O)N1C(=O)[C@@]2(c3cc(C#Cc4ccc(OC)cc4)ccc31)[C@H](C(=O)N1CCCCCCC1)[C@H]1C(=O)O[C@H](c3ccccc3)[C@H](c3ccccc3)N1[C@@H]2c1ccc(O)cc1 | -0.518
* CCCc1cccc(=O)o1 | -1.23

Would you kindly look at the next entry?
input: Look at this compound and give its reported z-score. [N-]=[N+]=Nc1ccccc1[C@@H]1OC(c2ccc(OCCCO)cc2)=N[C@]1(CCS(=O)(=O)c1ccccc1)C(=O)NCCN1CCOCC1
output: 0.667

---

target: NADPH oxidase 5 (Homo sapiens); experiment: NOX5-dependent H2O2 signal modulators, primary screen, NOX inhibitor project, cell-based, HEK293-NOX5, Amplex Red fluorescence (AID 1161); details: HEK293-NOX5, ionomycin, 45 min, higher = more signal
ATTRIBUTE_MEASURED: z-score
Kindly provide the number alone.

Worked cases, answers included:
* CC(C)CN1C(=O)[C@@]2(Cc3ccccc31)c1ccccc1C(=O)N(Cc1ccccc1C(F)(F)F)[C@H]2c1ccc(CO)cc1 | 1.34
* Cc1ccc(F)cc1S(=O)(=O)N[C@@H]1CCN(Cc2ccc(Oc3ccccc3)cc2)C1 | -1.67

Would you kindly look at the next entry?
input: Look at this molecule and give its reported z-score. C=C(COC)/C(=C/C[C@@H](OC(=O)c1ccncc1)c1ccc(OCCO)cc1)c1cnc2ccccc2c1
output: -1.84

---

Catalogue of composite z-score values
system: Chordin-like protein 2 (CHRDL2); assay: CHRDL2 small-molecule binders, primary screen, biochemical, small-molecule microarray, 635 nm fluorescence (AID 1126); conditions: small-molecule microarray binding, fluorescence 635 nm; higher = more signal;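 note: printed compound slides probed with Chrdl2 protein at 4 µg/mL for 1 h at 4 C; score merges 667 nm emission intensity with signal to noise over three replicate slides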

Worked cases, answers included:
* CC(C)NC(=O)[C@@]1(C)c2ccccc2C(=O)N(C(C)C)[C@H]1c1ccc(CO)cc1 | -2.33
* CC(C)CCC[C@@H](C)[C@H]1CC[C@@]2(C)C3=C(CC[C@]12C)[C@@]1(C)CC[C@H](OC(=O)c2ccc(Br)cc2)C(C)(C)C1CC3 (stereo partly drawn) | 0.498
* CC(C)C(=C=CC[C@H](O)c1ccc(OCCO)cc1)C[C@H](O)c1cc(Cl)cc(Cl)c1O | 0.243
* O=C(O)[C@H]1C[C@H]2C(=O)N3CCC[C@H]3C(=O)N2[C@H]1c1cccc(OCCO)c1 | 0.996
* C=CCNC(=O)[C@H]1[C@@H]2C(=O)O[C@@H](c3ccccc3)[C@@H](c3ccccc3)N2[C@@H](c2ccccc2OCCO)[C@]12C(=O)N(C(=O)OCCOC)c1ccc(C#CC3=CCCCC3)cc12 | 0.51
* C=CC[C@@H](OC(=O)Nc1ccc(OC)cc1)c1ccc(OCCO)cc1 | -2
* CCOC(=O)C1=CC[C@@H](c2ccccc2)N(S(=O)(=O)c2ccc(C)cc2)C1 | 0.565

Would you kindly look at the next entry?
input: Look at this compound and give its reported composite z-score. COc1ccccc1CN1C(=O)c2ccccc2[C@@H](C(=O)NC(C)C)[C@@H]1c1ccc(CO)cc1
output: 0.565

---

tested on: Inhibin beta A chain (activin A); assay: INHBA (activin A) binders on microarrays, primary screen, biochemical, small-molecule microarray, 635 nm fluorescence scan (AID 1107); conditions: small-molecule microarray binding, higher = more signal;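 note: mouse activin A protein probed at 4.33 µg/mL on printed slides; score merges bound-protein fluorescence near 667 nm with spot signal-to-noise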
Catalogue of composite z-score values
Kindly provide the number alone.

Worked cases, answers included:
* NC(=O)NCC#Cc1ccc2c(c1)[C@]1(C(=O)N2)[C@H](c2ccc(O)cc2)N2[C@H](c3ccccc3)[C@H](c3ccccc3)OC(=O)[C@H]2[C@@H]1C(=O)Nc1nc2ccccc2s1 | 1.17
* COC(=O)[C@@]1(Cc2ccc(OC)cc2)[C@H]2c3cc(C(=O)N4CCCC4)n(CCc4cc5ccccc5[nH]4)c3C[C@H]2CN1C(=O)c1ccccc1 | 0.881
* O=C1O[C@@H](c2ccccc2)[C@@H](c2ccccc2)N2[C@@H](c3ccccc3OCCO)[C@]3(C(=O)Nc4ccc(C#CC5=CCCCC5)cc43)[C@@H](C(=O)NC[C@H](O)c3ccccc3)[C@H]12 | 0.623
* CC(C)C(=C=CC[C@H](O)c1ccc(OCCO)cc1)C[C@H](O)c1cc(Cl)cc(Cl)c1O | 0.707
* CC(C)(C)OC(=O)CC[C@]1(C(=O)NCCN2CCOCC2)N=C(c2ccc(OCCCO)cc2)O[C@H]1c1ccccc1N=[N+]=[N-] | 1.24

input: Look at this molecule and give its reported composite z-score. Cc1ccc(S[C@]2(C(=O)NC(C)C)CC(=O)N(C3Cc4ccccc4C3)[C@@H]2c2ccc(CO)cc2I)cc1
output: -0.696

---

assay: FRG1 promoter luciferase signal modulators, primary screen, FRG1 inhibition for FSHD, cell-based, C2C12 myotubes, firefly/Renilla luciferase, luminescence (AID 1084); conditions: higher = more signal, called active from +8 up or from −8 down
Active and inactive are the calls of the source.
ATTRIBUTE_MEASURED: z-score

Worked cases, answers included:
- COCCCNC(=O)[C@@]1(Sc2ccc(C)cc2)CC(=O)N(C2Cc3ccccc3C2)[C@@H]1c1ccc(CO)cc1I: -0.703 (inactive)
- COC(=O)C(CC#Cc1ccc2c(c1)[C@]1(C(=O)N2)[C@H](C(=O)O)[C@H]2C(=O)O[C@H](c3ccccc3)[C@H](c3ccccc3)N2[C@@H]1c1ccccc1OCCO)C(=O)OC: 0.483 (inactive)
- CC(C)C(CO)N1C(=O)[C@]2(C)C3C(=O)OCCC/C=C\[C@H]3OC23C=CCN(c2ccc(Cl)cc2)C(=O)[C@@H]13 (some centres not stated): 0.0186 (inactive)
- COc1ccc([Si](C)(C)[C@H]2[C@H](CCn3cc([C@H](O)c4ccccc4)nn3)O[C@@]3(C(=O)N(Cc4ccc(N5CCC5=O)cc4)c4ccccc43)[C@@H]2C)cc1: -2.36 (inactive)
- O=C1NC(=O)C2C1C=CC(C(O)c1ccc(Br)cc1)N2Nc1ccccn1 (configuration not stated): -0.383 (inactive)

input: Look at this compound and give its reported z-score. COc1ccc(C(O)C2C=CC3C(=O)N(Cc4ccccc4)C(=O)C3N2n2cnnc2)c2ccccc12 (configuration not stated)
output: 0.422 (inactive)

input: Another compound: COc1ccc(NN2C(C(O)c3ccccn3)C=CC3C(=O)N(C4CCCCC4)C(=O)C32)cc1 (configuration not stated)
output: 3.21 (inactive)

---

system: Neuregulin-1 EGF-like domain; test: binders of neuregulin-1 EGF-like domain, primary screen, biochemical, small-molecule microarray, 635 nm fluorescence (AID 1081); conditions: small-molecule microarray binding, higher = more signal;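 note: binding of the protein to compounds printed on small-molecule microarray slides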
ATTRIBUTE_MEASURED: composite z-score
Kindly provide the number alone.

• C[C@@H](OCc1ccccc1)C1NC(=O)[C@@]23C(=O)N[C@@H](Cc4ccccc4)C2[C@H](C)[C@@]2(C)O[C@H]2C3/C=C/C/C=C\CNC(=O)CNC1=O (some centres not stated) = -0.002

input: Look at this compound and give its reported composite z-score. COc1c(C)cc(-c2cc3c(c(-c4ccccc4)n2)[Si](C(C)C)(C(C)C)OC3)cc1C
output: -1.15

input: Another compound: COc1ccccc1CN1C(=O)c2ccccc2[C@@H](C(=O)NC(C)C)[C@@H]1c1ccc(CO)cc1
output: 1.31

input: Another compound: COc1ccc([Si](C)(C)[C@@H]2[C@@H](CCO)O[C@]3(C(=O)N(Cc4cccc(N5C(=O)c6ccccc6Oc6ccccc65)c4)c4ccccc43)[C@H]2C)cc1
output: 0.602

input: Another compound: O=C1NC(=O)C2C1C=CC(C(O)c1c(F)cccc1Cl)N2Nc1ccccn1 (configuration not stated)
output: 0.633

input: Another compound: CC1CC/C=C\[C@H]2OC34C=CCN(CCN5CCOCC5)C(=O)[C@H]3N(CCO)C(=O)[C@@H]4C2C(=O)O1 (some centres not stated)
output: -0.376

input: Another compound: CCOC(=O)C[C@H]1[C@H](OC(=O)c2ccc(-c3ccccc3)cc2)[C@@H](NC(=O)c2ccc3ccccc3n2)c2cc(OCCCO)ccc2N1C(=O)c1ccccc1
output: 0.857
